pIC50: −log10 of the molar value.
This document collects pIC50 values reported for KPC-2 (Klebsiella pneumoniae, UniProt Q9F663).
Metric Name: pIC50

CC1(C)[C@H](C(=O)O)N2C(=O)C[C@H]2S1(=O)=O [Sulbactam]; 3.97
C[C@]1(Cn2ccnn2)[C@H](C(=O)O)N2C(=O)C[C@H]2S1(=O)=O [Tazobactam]; 4.01
O=C(O)[C@H]1/C(=C/CO)O[C@@H]2CC(=O)N21 [Clavulanic acid]; 3.86
CC(=O)Nc1ccc(S(=O)(=O)Nc2ccccc2NS(=O)(=O)c2ccc(NC(C)=O)cc2)cc1 [ZINC01807204]; 3.70

Hey, just so you know, these numbers are from paper PMC4180753.
